Documented T/C across a set of molecules
- Tested on: L1210 leukemia ip in BDF1 mice, survival T/C
- Assay overview: NCI In Vivo Anticancer Drug Screen. Data for tumor model L1210 Leukemia (intraperitoneal) in B6D2F1 (BDF1) mice
- Condition: endpoint: mean survival time; dose: 400.0 mg/kg/injection; schedule: Q01DX001 (ip); vehicle: carboxymethylcellulose (CMC); higher = longer survival
Toxic doses and inconclusive results are not listed.

Consider the worked cases shown below.
Nc1nc(N)c(N=Nc2ccc(S(=O)(=O)Nc3ncccn3)cc2)cc1N=Nc1ccccc1    103 % of control
CCOc1ccccc1C(=O)Nc1ccc(Br)cc1    102 % of control
NC(=O)SCC(=O)Nc1ccc2ncccc2c1    100 % of control
CCCCCCCCCCCCCCCCS(=O)(=O)N/N=C/c1cc(Cl)ccc1O    92 % of control

From here, focus on the item given below.
// fetch L1210 leukemia ip in BDF1 mice, survival T/C T/C for CN(C)c1ccc(/C=C\c2ccnc3ccccc23)cc1
101 % of control

Each recorded value in this set is attributed to PubChem BioAssay AID248.
